Target: Nitric oxide synthase, inducible (Mus musculus) (UniProt P29477)
Sequence (whole entry): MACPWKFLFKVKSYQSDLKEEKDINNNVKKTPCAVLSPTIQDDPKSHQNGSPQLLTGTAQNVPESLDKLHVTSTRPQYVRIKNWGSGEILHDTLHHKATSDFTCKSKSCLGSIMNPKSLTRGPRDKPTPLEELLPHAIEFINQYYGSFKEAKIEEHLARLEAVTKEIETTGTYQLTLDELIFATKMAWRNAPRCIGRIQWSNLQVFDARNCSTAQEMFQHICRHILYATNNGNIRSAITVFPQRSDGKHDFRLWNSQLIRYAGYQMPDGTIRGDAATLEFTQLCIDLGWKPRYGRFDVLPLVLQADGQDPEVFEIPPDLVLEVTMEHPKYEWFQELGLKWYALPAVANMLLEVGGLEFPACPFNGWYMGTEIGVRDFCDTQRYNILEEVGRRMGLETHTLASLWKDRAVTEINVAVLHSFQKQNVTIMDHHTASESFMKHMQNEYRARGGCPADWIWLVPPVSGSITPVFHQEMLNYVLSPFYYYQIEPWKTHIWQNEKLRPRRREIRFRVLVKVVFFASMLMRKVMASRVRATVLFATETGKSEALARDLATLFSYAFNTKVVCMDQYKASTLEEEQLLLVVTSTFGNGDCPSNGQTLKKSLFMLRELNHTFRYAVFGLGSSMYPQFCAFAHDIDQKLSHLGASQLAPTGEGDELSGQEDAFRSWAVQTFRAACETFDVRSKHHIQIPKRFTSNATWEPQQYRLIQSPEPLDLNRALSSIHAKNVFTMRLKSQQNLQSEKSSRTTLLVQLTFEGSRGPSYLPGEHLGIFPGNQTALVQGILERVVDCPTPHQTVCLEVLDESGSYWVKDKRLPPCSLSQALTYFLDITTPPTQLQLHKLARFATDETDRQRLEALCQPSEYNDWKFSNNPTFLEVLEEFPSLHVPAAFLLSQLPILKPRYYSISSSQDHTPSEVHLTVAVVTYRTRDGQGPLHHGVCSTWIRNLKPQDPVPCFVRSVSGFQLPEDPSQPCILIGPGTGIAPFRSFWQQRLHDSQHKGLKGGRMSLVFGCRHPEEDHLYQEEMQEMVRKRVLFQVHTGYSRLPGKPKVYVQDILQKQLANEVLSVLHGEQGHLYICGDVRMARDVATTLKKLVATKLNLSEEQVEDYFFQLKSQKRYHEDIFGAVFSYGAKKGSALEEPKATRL
Assay: Inhibition of mouse iNOS expressed in insect Sf9 cells assessed as residual activity at 100 uM by Griess assay relative to control
property-name: Activity (%)
The reply should be a number in %, with the unit left off.

1. CC1=CC=CC2=NCC(C(=O)c3ccc(Br)cc3)CN12 (stereo unspecified); 9

stdin: Which Activity value belongs to COc1ccc(C(=O)C2CN=C3C=CC=CN3C2)cc1OC (stereo unspecified) ?
stdout: 123

stdin: Which Activity is listed for CCCNC(=N)NCCC[C@H](N)C(=O)O ?
stdout: 88

stdin: Can you share its Activity? I mean this molecule: CC1=CC2=NCC(C(=O)c3ccc(F)cc3)CN2C=C1 (stereo unspecified)
stdout: 78

stdin: I'd like to know its Activity. The molecule in question is CC1=CC2=NCC(C(=O)c3ccccc3)CN2C=C1 (stereo unspecified)
stdout: 16

stdin: Recorded Activity for CC1=CC=CC2=NCC(C(=O)c3ccc(C)cc3)CN12.[O-][Cl+3]([O-])([O-])O (stereo unspecified) , please?
stdout: 99
